Measured pIC50 values are reported for all entries that follow.
molecular target: HIV-1 Protease (Human immunodeficiency virus type 1 group M subtype B); construct: HIV-1 Protease; purchased Bachem Bioscience Inc; assay: HIV protease inhibition (undecapeptide substrate cleavage, HPLC); assay type: biochemical; conditions: 37° C., 5 min, 40 μM substrate, pH 4.7, 2% DMSO, read-out: 50% INHIBITION CONCENTRATION
pIC50: −log10 of the molar value.
Attribute measured: pIC50

Compound	Recorded measurement
CCCCC1(c2ccc(-c3ccccc3)cc2)CC(O)=C(SCCc2ccccc2)C(=O)O1 (racemic) [Example 22]	5.96
CC(C)CC1(c2ccccc2)CC(O)=C(SCc2ccccc2)C(=O)O1 (racemic) [Example 5]	6.40
O=C1OC2(CCCc3ccccc32)CC(O)=C1SCc1ccccc1 (racemic) [Example 52]	5.70
O=C1OC(CC2CCCC2)(c2ccccc2)CC(O)=C1SCc1ccccc1 (racemic) [Example 50]	7.06

Data origin, for the record: patent US5789440A
